Target: Thromboxane-A synthase (Homo sapiens)
Sequence (whole entry): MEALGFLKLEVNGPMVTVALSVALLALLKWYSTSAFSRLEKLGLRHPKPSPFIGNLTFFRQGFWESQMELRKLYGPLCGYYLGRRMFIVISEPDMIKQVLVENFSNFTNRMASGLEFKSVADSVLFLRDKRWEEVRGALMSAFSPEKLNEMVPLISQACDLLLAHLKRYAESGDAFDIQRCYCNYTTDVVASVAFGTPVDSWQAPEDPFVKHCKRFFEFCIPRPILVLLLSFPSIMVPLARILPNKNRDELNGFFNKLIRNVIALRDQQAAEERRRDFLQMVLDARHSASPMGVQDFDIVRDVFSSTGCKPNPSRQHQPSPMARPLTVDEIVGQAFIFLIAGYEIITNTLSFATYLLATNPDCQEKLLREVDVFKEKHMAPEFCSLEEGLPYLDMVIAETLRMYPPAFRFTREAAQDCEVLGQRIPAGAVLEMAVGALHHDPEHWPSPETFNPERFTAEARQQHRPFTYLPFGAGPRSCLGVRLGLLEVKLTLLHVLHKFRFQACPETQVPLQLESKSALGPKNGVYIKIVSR
Assay: Compound was evaluated for inhibition of TXA2 synthase by measuring collagen stimulated TXB2 production in the blood samples after 2 hr time at a dose of 0.05 mg/kg
Assay type: functional, organism-based
Parameters: dose 0.05 mg/kg
Conditions: Canis lupus familiaris
REPORTED PROPERTY: inhibition (%)

1. N#Cc1ccc([C@H]2OC[C@@H](C/C=C\CCC(=O)Oc3ccccc3OC(=O)CC/C=C\C[C@@H]3CO[C@H](c4ccc(C#N)cc4)O[C@@H]3c3ccccc3O)[C@@H](c3cccnc3)O2)cc1 | 68

(1) N#Cc1ccc([C@H]2OC[C@@H](C/C=C\CCC(=O)Oc3ccccc3OC(=O)CC/C=C\C[C@@H]3CO[C@H](c4ccccc4Cl)O[C@@H]3c3ccccc3O)[C@@H](c3cccnc3)O2)cc1 (stereo in doubt; 16 (-))
(2) N#Cc1ccc([C@H]2OC[C@@H](C/C=C\CCC(=O)Oc3ccccc3OC(=O)CC/C=C\C[C@@H]3CO[C@H](c4ccccc4Cl)O[C@@H]3c3ccccc3O)[C@@H](c3cccnc3)O2)cc1 (stereo in doubt; 15)
Query: // pick larger inhibition from pair: 1 vs 2 Label of pick, please.
Result: 2
(2: 54%, 1: 31%)

###

target: UniProt:P24557; experiment: Compound was evaluated for inhibition of TXA2 synthase by measuring collagen stimulated TXB2 production in the blood samples after 8 hr time at a dose of 0.05 mg/kg; assay type: functional, organism-based; set-up: dose 0.05 mg/kg; conditions: Canis lupus familiaris
Recorded measurements of inhibition, one per entry

Example cases with answers are listed next.
1) O=C(O)CC/C=C\C[C@@H]1CO[C@H](c2ccccc2Cl)O[C@@H]1c1ccccc1O | > 50%
2) N#Cc1ccc([C@H]2OC[C@@H](C/C=C\CCC(=O)O)[C@@H](c3ccccc3O)O2)cc1 | > 50%

Continue with the compound presented below.
Query: Entry under review: `N#Cc1ccc([C@H]2OC[C@@H](C/C=C\CCC(=O)Oc3ccccc3OC(=O)CC/C=C\C[C@@H]3CO[C@H](c4ccc(C#N)cc4)O[C@@H]3c3ccccc3O)[C@@H](c3cccnc3)O2)cc1` . Reported inhibition?
Result: < 50%
